Biological target: Recombinant JAK1 (Homo sapiens)
Construct: purchased Carna Biosciences
Sequence (P23458 whole entry): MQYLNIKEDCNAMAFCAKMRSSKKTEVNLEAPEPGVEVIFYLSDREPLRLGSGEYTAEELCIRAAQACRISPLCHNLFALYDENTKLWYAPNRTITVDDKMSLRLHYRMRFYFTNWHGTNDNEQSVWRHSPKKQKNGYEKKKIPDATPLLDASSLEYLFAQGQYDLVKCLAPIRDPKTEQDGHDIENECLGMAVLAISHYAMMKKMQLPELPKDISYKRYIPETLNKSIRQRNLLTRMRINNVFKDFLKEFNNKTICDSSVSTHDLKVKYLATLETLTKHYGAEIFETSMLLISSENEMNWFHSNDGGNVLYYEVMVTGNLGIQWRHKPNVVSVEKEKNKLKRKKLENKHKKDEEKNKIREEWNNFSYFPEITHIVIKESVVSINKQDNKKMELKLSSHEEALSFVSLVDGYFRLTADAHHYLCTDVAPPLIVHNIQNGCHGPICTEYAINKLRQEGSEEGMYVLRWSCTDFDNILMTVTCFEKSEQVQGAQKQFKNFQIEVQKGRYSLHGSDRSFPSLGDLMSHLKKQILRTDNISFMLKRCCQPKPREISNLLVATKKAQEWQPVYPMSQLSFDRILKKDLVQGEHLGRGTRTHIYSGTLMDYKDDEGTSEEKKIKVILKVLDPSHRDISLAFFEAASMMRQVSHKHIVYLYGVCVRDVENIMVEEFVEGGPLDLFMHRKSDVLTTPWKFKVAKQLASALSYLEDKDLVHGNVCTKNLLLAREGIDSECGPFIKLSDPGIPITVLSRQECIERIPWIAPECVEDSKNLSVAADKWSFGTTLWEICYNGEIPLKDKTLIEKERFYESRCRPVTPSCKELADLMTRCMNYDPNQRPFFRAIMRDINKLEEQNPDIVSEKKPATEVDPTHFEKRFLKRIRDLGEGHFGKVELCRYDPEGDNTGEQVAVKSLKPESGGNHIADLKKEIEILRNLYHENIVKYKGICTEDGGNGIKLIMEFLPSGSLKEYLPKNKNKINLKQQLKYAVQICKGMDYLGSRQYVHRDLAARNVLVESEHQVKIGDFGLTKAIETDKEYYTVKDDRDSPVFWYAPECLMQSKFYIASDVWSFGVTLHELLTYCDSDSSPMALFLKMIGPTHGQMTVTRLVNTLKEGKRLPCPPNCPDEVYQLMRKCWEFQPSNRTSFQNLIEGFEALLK
Test: JAK biochemical assay (LANCE Ultra TR-FRET), JAK1
Details: recombinant JAK1, TR-FRET; read-out: Biochemical Assay (μM) JAK1
Property Name: IC50

Before answering, review these 8 worked examples.
Compound: CC(C)N1CCC([C@@](O)(c2ccc(-n3cc(-c4ccnc5[nH]cnc45)cn3)nc2)C(F)(F)F)C1 (stereo partly drawn)
IC50: 0.0025 µM
//
Compound: CC(C)[C@H](C#N)NC(=O)n1cc(-c2ccnc3[nH]c(=O)[nH]c23)cn1
IC50: < 0.5 µM
//
Compound: CC(c1ccc(-n2cc(-c3ccnc4[nH]cnc34)cn2)nc1)S(C)(=O)=O (stereo not drawn)
IC50: < 0.1 µM
//
Compound: N#CC1(NC(=O)n2cc(-c3ccnc4[nH]c(=O)[nH]c34)cn2)CC1
IC50: < 0.5 µM
//
Compound: OCCC(c1ccc(-n2cc(-c3ccnc4[nH]cnc34)cn2)nc1)C(F)(F)F (stereo not drawn)
IC50: < 0.1 µM
//
Compound: CC(NC(=O)n1cc(-c2ccnc3[nH]c(=O)[nH]c23)cn1)C(F)(F)F (stereo not drawn)
IC50: 0.039 µM
//
Compound: N#CCC(=O)Nc1ccc(-n2cc(-c3ccnc4[nH]cnc34)cn2)cc1
IC50: < 0.5 µM
//
Compound: OC(c1ccc(-n2cc(-c3ccnc4[nH]cnc34)cn2)nc1)(C1CCCCC1)C(F)(F)F (stereo not drawn)
IC50: > 0.1 µM

// sample N#CCC(c1ccc(-n2cc(-c3ccnc4[nH]cnc34)cn2)nc1)C(F)(F)F (stereo not drawn) , its IC50 was > 0.1 µM

// sample CC(CC#N)NC(=O)n1cc(-c2ccnc3[nH]c(=O)[nH]c23)cn1 (stereo not drawn) [Example 1053] , its IC50 was < 1 µM

// sample "O=C(N1CCN(c2ccnc3[nH]c(=O)[nH]c23)CC1)N1CCS(=O)(=O)CC1" , its IC50 was > 10 µM

// sample "CC1(C)CN(C(=O)n2cc(-c3ccnc4[nH]c(=O)[nH]c34)cn2)C1" , its IC50 was > 0.5 µM

// sample "CCOc1nc2c(-c3cnn(C(=O)NCC(F)(F)F)c3)ccnc2[nH]1" , its IC50 was < 1 µM

---

Biological target: Recombinant TYK2 (Homo sapiens)
Construct: purchased Carna Biosciences
Sequence (P29597 whole entry): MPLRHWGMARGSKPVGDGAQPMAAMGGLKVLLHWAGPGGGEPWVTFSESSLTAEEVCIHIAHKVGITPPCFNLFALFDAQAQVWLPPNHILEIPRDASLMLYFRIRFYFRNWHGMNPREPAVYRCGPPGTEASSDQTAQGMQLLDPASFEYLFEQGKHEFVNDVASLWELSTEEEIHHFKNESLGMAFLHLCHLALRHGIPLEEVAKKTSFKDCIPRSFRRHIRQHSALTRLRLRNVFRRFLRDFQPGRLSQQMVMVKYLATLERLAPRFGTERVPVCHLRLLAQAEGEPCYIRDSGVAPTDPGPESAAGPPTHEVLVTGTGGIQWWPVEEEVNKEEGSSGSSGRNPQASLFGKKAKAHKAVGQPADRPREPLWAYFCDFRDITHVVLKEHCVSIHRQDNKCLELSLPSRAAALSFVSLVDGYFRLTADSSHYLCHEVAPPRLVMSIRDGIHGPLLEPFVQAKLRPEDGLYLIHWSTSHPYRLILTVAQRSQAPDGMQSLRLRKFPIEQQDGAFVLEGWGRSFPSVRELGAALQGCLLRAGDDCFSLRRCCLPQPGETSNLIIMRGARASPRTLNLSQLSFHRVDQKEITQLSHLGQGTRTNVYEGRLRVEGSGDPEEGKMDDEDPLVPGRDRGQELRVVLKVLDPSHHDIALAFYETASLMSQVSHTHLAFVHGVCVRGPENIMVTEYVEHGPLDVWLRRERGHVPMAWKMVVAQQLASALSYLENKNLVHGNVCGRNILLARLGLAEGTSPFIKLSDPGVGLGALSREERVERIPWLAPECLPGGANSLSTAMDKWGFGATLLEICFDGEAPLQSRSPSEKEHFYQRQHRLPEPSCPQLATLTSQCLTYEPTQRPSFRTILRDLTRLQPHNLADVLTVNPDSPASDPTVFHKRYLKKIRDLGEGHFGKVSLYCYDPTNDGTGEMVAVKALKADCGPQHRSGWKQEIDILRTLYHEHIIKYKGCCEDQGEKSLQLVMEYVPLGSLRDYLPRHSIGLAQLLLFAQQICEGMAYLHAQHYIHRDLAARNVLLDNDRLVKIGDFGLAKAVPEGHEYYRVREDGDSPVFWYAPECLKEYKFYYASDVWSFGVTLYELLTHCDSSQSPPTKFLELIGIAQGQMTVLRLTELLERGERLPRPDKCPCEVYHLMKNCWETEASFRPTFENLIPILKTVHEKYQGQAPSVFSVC
Test: JAK biochemical assay (LANCE Ultra TR-FRET), TYK2
Conditions: recombinant TYK2, TR-FRET; read-out: Biochemical Assay (μM) TYK2
Property Name: IC50

Molecule: CC(=O)N1CCC(c2nc3c(-c4cnn(C(=O)NCC(F)(F)F)c4)ccnc3[nH]2)CC1
Obs Value: > 10 µM
//
Molecule: OC(c1ccc(-n2cc(-c3ccnc4[nH]cnc34)cn2)nc1)C(F)(F)F (stereo not shown)
Obs Value: > 1 µM
//
Molecule: CNCCC(c1ccc(-n2cc(-c3ccnc4[nH]cnc34)cn2)nc1)C(F)(F)F (stereo not shown) [Example 1200]
Obs Value: 0.52 µM
//
Molecule: FC(F)(F)C(Cl)c1ccc(-n2cc(-c3ccnc4[nH]cnc34)cn2)nc1 (stereo not shown)
Obs Value: > 1 µM
//
Molecule: N#CCc1ccc(-n2cc(-c3ccnc4[nH]cnc34)cn2)c(F)c1
Obs Value: > 10 µM
//
Molecule: O=C(NCC(F)(F)F)n1cc(-c2ccnc3[nH]c(C4CC4)nc23)cn1
Obs Value: > 10 µM

// sample "N#CCNC(=O)c1ccc(-n2cc(-c3ccnc4[nH]cnc34)cn2)nc1" , its IC50 was > 1 µM

// sample N#CC(NC(=O)n1cc(-c2ccnc3[nH]cnc23)cn1)c1ccccc1 (stereo not shown) , its IC50 was > 0.5 µM

// sample COc1cc(-c2nc3c(-c4cnn(C5COCCC5C#N)c4)ccnc3[nH]2)ccc1Cl (stereo not shown) , its IC50 was > 1 µM

// sample CC(CC#N)NC(=O)n1cc(-c2ccnc3[nH]c(=O)[nH]c23)cn1 (stereo not shown) [Example 1052] , its IC50 was < 0.5 µM

meta.source: patent US12516056B2
